Molecular target: human glucagon receptor (human, UniProt P47871 26-477)
Sequence (P47871 26-477): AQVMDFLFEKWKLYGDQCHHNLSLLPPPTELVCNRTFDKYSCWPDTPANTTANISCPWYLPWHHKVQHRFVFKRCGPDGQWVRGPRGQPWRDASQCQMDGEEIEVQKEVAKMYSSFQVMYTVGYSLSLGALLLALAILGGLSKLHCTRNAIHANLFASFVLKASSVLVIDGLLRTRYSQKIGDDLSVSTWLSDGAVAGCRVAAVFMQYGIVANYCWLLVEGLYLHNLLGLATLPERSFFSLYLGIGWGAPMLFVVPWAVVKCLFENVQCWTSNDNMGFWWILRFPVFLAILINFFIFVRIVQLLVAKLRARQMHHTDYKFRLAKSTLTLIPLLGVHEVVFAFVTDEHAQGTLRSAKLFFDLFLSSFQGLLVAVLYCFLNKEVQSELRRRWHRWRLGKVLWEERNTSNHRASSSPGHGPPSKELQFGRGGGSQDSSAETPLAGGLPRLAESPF
Experiment: cell-based or functional assay
*1 amine or outer side, *2 acyl side, *3 side chain or, on linkers, in order; H or OH if unused. Where no end group is shown, it is not given here. Side-chain parts run from the residue outwards. [ ]: non-standard residue; d: D form. The star is where a group is joined. C20 diacid = O=C(O)CCCCCCCCCCCCCCCCCCC(=O)*; C18 diacid = O=C(O)CCCCCCCCCCCCCCCCC(=O)*; C16 diacid = O=C(O)CCCCCCCCCCCCCCC(=O)*; γGlu = O=C(O)[C@H](CCC(=O)[*:2])N[*:1]; Desaminohistidyl = O=C(CCc1c[nH]cn1)*; Ac4c = NC1(C(=O)O)CCC1; AEEA = NCCOCCOCC(=O)O; Aib = CC(C)(N)C(=O)O
attribute measured: EC50 GlucagonR [pM], CRE luciferase reporter gene assay
# output: number + unit

Recorded EC50 GlucagonR [pM], CRE luciferase reporter gene assay, per entry:
>>> meas_value("[Desaminohistidyl][Aib]HGTFTSDVSKYLEEQAAREFIAWLIK([Ado-Ado-γGlu-γGlu-C18 diacid])T-NH2")
"106 pM"
>>> meas_value("[Desaminohistidyl][Aib]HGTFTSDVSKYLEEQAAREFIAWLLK([Ado-Ado-γGlu-γGlu-C18 diacid])T-NH2")
"120 pM"
>>> meas_value("[Desaminohistidyl][Aib]HGTFTSDVSKYLEAQAAREFIAWLLK([γGlu-γGlu-Ado-γGlu-γGlu-C18 diacid])T-NH2")
"21 pM"
>>> meas_value("[Desaminohistidyl][Aib]HGTFTSDVSRYLEGRAAREFIAWLLK([γGlu-γGlu-AEEA-γGlu-γGlu-C18 diacid])GSG")
"158 pM"
>>> meas_value("[Desaminohistidyl][Aib]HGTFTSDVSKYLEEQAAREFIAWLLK([Gly-Ser-Glu-Gly-Ser-γGlu-γGlu-C20 diacid])T-NH2")
"111 pM"
>>> meas_value("[Desaminohistidyl]AHGTFTSDVSRYLEEQAARK([AEEA-AEEA-γGlu-γGlu-γGlu-C18 diacid])FIAWLLR")
"1290 pM"
>>> meas_value("[Desaminohistidyl][Aib]HGTFTSDVSRYLEGQAAREFIAWLLK([Gly-Ser-Glu-Gly-Ser-γGlu-γGlu-C18 diacid])T-NH2")
"143 pM"
>>> meas_value("[Desaminohistidyl][Ac4c]HGTFTSDYSKYLEEQAAREFIAWLLKK([Gly-Ser-Glu-Gly-Ser-γGlu-γGlu-C18 diacid])-NH2")
"117 pM"

I have this binder here, [Desaminohistidyl][Aib]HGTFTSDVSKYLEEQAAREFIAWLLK([Ado-Ado-γGlu-γGlu-C16 diacid])T-NH2 , and I need its recorded EC50 GlucagonR [pM], CRE luciferase reporter gene assay.
46.1 pM

The reported measurements were obtained from patent US20160102129A1.
